# assay-comment: Pharmacokinetic assay in rats
# Format: in vivo, Sprague-Dawley rats
# run-parameters: male, Sprague-Dawley, plasma; rat, PO 10 mg/kg
Below is a list of entries, each paired with its recorded AUC(0-t) value.
assay-metric: AUC(0-t) (ng·h/mL)

C=CC(=O)Nc1cc(Nc2nccc(-n3cc(CN(C)C)c(-c4ccccc4)n3)n2)c(OC)nc1N1CCOCC1 :: 1430
C=CC(=O)Nc1cc(Nc2ncc(F)c(-n3cc(CN(C)C)c(-c4ccccc4)n3)n2)c(OC)nc1N1CCOCC1 :: 753

----------
# assay-comment: Pharmacokinetic assay in rats
# Type: in vivo, Sprague-Dawley rats
# run-parameters: male, Sprague-Dawley, plasma; rat, PO 10 mg/kg; read-out: MRTINF_pred
assay-metric: MRT inf (h)

C=CC(=O)Nc1cc(Nc2ncc(F)c(-n3cc(CN(C)C)c(-c4ccccc4)n3)n2)c(OC)nc1N1CCOCC1 :: 7.67
C=CC(=O)Nc1cc(Nc2nccc(-n3cc(CN(C)C)c(-c4ccccc4)n3)n2)c(OC)nc1N1CCOCC1 :: 9.11

----------
# assay-comment: Pharmacokinetic assay in rats
# Assay type: in vivo, Sprague-Dawley rats
# run-parameters: male, Sprague-Dawley, plasma; rat, IV 0.5 mg/kg
assay-metric: AUC(0-t) (ng·h/mL)

C=CC(=O)Nc1cc(Nc2nccc(-n3cc(CN(C)C)c(-c4ccccc4)n3)n2)c(OC)nc1N1CCOCC1 :: 328
C=CC(=O)Nc1cc(Nc2ncc(F)c(-n3cc(CN(C)C)c(-c4ccccc4)n3)n2)c(OC)nc1N1CCOCC1 :: 284

----------
Below is a list of entries, each paired with its recorded half-life value.
# assay-comment: Pharmacokinetic assay in rats
# Format: in vivo, Sprague-Dawley rats
# run-parameters: male, Sprague-Dawley, plasma; rat, IV 0.5 mg/kg
# Experimental: Six male Sprague-Dawley rats (7-8 weeks old, and weighing about 210 g) were divided into 2 groups, 3 rats in each group. A single dose of compounds (10 mg/kg orally) was administered intravenously or orally to compare their pharmacokinetics. […] Immediately after the blood sample was collected, the test tube was gently inverted at least 5 times to ensure sufficient mixing, and then placed on ice. […] The concentration of the compound of the present disclosure in plasma was determined by LC-MS/MS. […]
assay-metric: half-life (h)

C=CC(=O)Nc1cc(Nc2ncc(F)c(-n3cc(CN(C)C)c(-c4ccccc4)n3)n2)c(OC)nc1N1CCOCC1 :: 2.17
C=CC(=O)Nc1cc(Nc2nccc(-n3cc(CN(C)C)c(-c4ccccc4)n3)n2)c(OC)nc1N1CCOCC1 :: 2.8

----------
# assay-comment: Pharmacokinetic assay in rats
# Assay type: in vivo, Sprague-Dawley rats
# run-parameters: male, Sprague-Dawley, plasma; rat, PO 10 mg/kg; read-out: AUCINF_pred
assay-metric: AUC(0-inf) (ng·h/mL)

C=CC(=O)Nc1cc(Nc2ncc(F)c(-n3cc(CN(C)C)c(-c4ccccc4)n3)n2)c(OC)nc1N1CCOCC1 :: 840
C=CC(=O)Nc1cc(Nc2nccc(-n3cc(CN(C)C)c(-c4ccccc4)n3)n2)c(OC)nc1N1CCOCC1 :: 1790

----------
Below is a list of entries, each paired with its recorded AUC(0-inf) value.
# assay-comment: Pharmacokinetic assay in rats
# Assay type: in vivo, Sprague-Dawley rats
# run-parameters: male, Sprague-Dawley, plasma; rat, IV 0.5 mg/kg; read-out: AUCINF_pred
assay-metric: AUC(0-inf)

C=CC(=O)Nc1cc(Nc2ncc(F)c(-n3cc(CN(C)C)c(-c4ccccc4)n3)n2)c(OC)nc1N1CCOCC1 :: 289 ng·h/mL
C=CC(=O)Nc1cc(Nc2nccc(-n3cc(CN(C)C)c(-c4ccccc4)n3)n2)c(OC)nc1N1CCOCC1 :: 341 ng·h/mL
